A collection of molecules and their measured DR/DR LNA
test-details: Probe fluorescence ratio response to linolenic acid relative to ADIFAB2
Format: binding
condition-notes: response relative to ADIFAB2

molecule	DR/DR LNA
119H, 72A (protein, listed as Rattus norvegicus, PEPTIDE (1)...(131) wild-type rat intestinal fatty acid binding protein) AFDGTWKVDRNENYEKFMEKMGINVVKRKLGAHDNLKLTITQEGNKFTVKESSNFRNIDVVFELGVDFAYSAADGTELTGTWTMEGNKLVGKFKRVDNGKELIAVREISGNELIQTYTHEGVEAKRIFKKE	0.67
62I, 72A (protein, listed as Rattus norvegicus, PEPTIDE (1)...(131) wild-type rat intestinal fatty acid binding protein) AFDGTWKVDRNENYEKFMEKMGINVVKRKLGAHDNLKLTITQEGNKFTVKESSNFRNIDVVIELGVDFAYSAADGTELTGTWTMEGNKLVGKFKRVDNGKELIAVREISGNELIQTYTYEGVEAKRIFKKE	1.38
49G1, 72A (protein, listed as Rattus norvegicus, PEPTIDE (1)...(131) wild-type rat intestinal fatty acid binding protein) AFDGTWKVDRNENYEKFMEKMGINVVKRKLGAHDNLKLTITQEGNKFTGKESSNFRNIDVVFELGVDFAYSAADGTELTGTWTMEGNKLVGKFKRVDNGKELIAVREISGNELIQTYTYEGVEAKRIFKKE	1.25
68M, 72A (protein, listed as Rattus norvegicus, PEPTIDE (1)...(131) wild-type rat intestinal fatty acid binding protein) AFDGTWKVDRNENYEKFMEKMGINVVKRKLGAHDNLKLTITQEGNKFTVKESSNFRNIDVVFELGVDMAYSAADGTELTGTWTMEGNKLVGKFKRVDNGKELIAVREISGNELIQTYTYEGVEAKRIFKKE	0.35
104F3, 72A (protein, listed as Rattus norvegicus, PEPTIDE (1)...(131) wild-type rat intestinal fatty acid binding protein) AFDGTWKVDRNENYEKFMEKMGINVVKRKLGAHDNLKLTITQEGNKFTVKESSNFRNIDVVFELGVDFAYSAADGTELTGTWTMEGNKLVGKFKRVDNGKELIFVREISGNELIQTYTYEGVEAKRIFKKE	0.45
104N, 72A (protein, listed as Rattus norvegicus, PEPTIDE (1)...(131) wild-type rat intestinal fatty acid binding protein) AFDGTWKVDRNENYEKFMEKMGINVVKRKLGAHDNLKLTITQEGNKFTVKESSNFRNIDVVFELGVDFAYSAADGTELTGTWTMEGNKLVGKFKRVDNGKELINVREISGNELIQTYTYEGVEAKRIFKKE	0.391

The measurements presented in this section are drawn from patent US20060257938A1.
